biological target: GTPase KRas (G12D) and Son of Sevenless Homolog 1 (SOS) (Homo sapiens, UniProt P01116, G12D); test: AlphaScreen Assay
Sequence (P01116 whole entry G12D): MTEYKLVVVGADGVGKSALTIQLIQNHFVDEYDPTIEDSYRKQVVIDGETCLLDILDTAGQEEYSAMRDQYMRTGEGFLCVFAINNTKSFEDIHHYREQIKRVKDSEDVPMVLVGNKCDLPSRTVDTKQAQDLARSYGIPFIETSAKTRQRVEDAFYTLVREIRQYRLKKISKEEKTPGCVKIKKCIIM
Sequence (Q07889 whole entry, further chain): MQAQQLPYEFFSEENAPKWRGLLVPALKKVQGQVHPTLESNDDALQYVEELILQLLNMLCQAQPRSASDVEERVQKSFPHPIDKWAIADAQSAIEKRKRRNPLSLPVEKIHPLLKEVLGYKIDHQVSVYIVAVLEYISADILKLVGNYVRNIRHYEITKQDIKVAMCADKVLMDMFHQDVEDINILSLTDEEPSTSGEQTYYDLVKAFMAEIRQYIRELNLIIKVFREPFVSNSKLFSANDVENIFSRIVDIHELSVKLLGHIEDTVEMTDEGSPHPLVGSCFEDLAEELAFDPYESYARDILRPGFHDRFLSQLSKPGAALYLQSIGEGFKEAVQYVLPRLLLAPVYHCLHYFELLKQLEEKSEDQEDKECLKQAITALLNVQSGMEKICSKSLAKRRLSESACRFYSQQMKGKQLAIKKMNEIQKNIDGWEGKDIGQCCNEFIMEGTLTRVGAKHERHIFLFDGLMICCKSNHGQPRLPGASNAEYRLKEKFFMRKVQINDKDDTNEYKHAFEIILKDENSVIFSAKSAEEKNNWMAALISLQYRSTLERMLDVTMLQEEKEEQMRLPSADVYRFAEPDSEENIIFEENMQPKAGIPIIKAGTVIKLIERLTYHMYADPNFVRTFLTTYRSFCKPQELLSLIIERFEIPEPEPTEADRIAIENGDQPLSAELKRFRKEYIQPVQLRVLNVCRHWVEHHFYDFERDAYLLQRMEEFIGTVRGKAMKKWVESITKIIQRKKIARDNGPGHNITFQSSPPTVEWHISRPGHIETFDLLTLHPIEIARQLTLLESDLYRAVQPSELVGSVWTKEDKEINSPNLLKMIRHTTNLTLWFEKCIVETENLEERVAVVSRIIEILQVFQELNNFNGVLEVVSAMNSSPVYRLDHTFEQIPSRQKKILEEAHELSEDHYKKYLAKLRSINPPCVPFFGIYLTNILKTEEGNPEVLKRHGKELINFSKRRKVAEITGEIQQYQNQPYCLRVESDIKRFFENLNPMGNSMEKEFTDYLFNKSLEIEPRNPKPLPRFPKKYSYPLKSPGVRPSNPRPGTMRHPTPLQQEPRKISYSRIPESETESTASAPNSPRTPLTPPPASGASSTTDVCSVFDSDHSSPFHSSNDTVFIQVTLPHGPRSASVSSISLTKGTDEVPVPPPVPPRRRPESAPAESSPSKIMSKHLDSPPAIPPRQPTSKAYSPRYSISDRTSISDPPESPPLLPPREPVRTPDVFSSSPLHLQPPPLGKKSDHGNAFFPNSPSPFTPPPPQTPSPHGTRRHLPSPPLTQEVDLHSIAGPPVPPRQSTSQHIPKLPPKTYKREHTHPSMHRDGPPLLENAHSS
pIC50: −log10 of the molar value. Numbered stars: 1 amine (or outer) side, 2 acyl side, 3 side chain; on linkers, the order of the positions; unused ones are H or OH. Bridge positions count the residues as written; N and C are the ends. Square brackets hold non-standard residues; d marks the D form. Peptide text beside a SMILES is read from it. * marks the point of attachment. hPhe(3-F,4-CF3) = N[C@@H](CCc1ccc(C(F)(F)F)c(F)c1)C(=O)O; X55 = Cn1ccc2ccc(CC[C@H](N[*:1])C(=O)[*:2])cc21; NMeGly(cPent) = CN[C@H](C(=O)O)C1CCCC1; oXylylene = c1ccc(C[*:2])c(C[*:1])c1; NMeCha = CN[C@@H](CC1CCCCC1)C(=O)O; Hyp = O=C(O)[C@@H]1C[C@@H](O)CN1; NMeD = CN[C@@H](CC(=O)O)C(=O)O; NMeL = CN[C@@H](CC(C)C)C(=O)O; NMeA = CN[C@@H](C)C(=O)O; Piperidide = C1CCN(*)CC1; X57 = FC(F)Oc1ccc(C*)cc1; Ac5c = NC1(C(=O)O)CCCC1; Aze = O=C(O)[C@@H]1CCN1; X87 = Clc1ccccc1C*; Sar = CNCC(=O)O
PROPERTY LABEL: pIC50

[[record]]
compound = "CCCC[C@@H]1NC(=O)[C@H](Cc2cccc(I)c2)NC(=O)CN(CC)C(=O)[C@H](Cc2ccc(Cl)cc2)N(CC)C(=O)CN(CC)C(=O)CN(CC)C(=O)[C@H]([C@@H](C)CC)NC(=O)[C@H](CC(C)C)N(CC)C(=O)CC(C(=O)N2CCCCC2)N(CC)C(=O)[C@H](CC(C)C)NC(=O)[C@H](Cc2ccccc2OC(F)(F)F)N(CC)C1=O (stereo not given in full) [US20240148821, Compound 111]"
observed = 7.00

[[record]]
compound = "CC[C@H](C)[C@@H]1NC(=O)[C@H](CC(C)C)N(C)C(=O)C[C@@H](C(=O)N2CCCCC2)N(C)C(=O)[C@H](CC(C)C)N(C)C(=O)C2(CCCC2)NC(=O)[C@@H]2C[C@@H](OCc3ccc(OC(F)F)cc3)CN2C(=O)[C@H](CCc2ccc(C(F)(F)F)c(F)c2)NC(=O)CN(C)C(=O)[C@H](CC2CCCCC2)N(C)C(=O)CN(C)C(=O)CN(C)C1=O [US20240148821, Compound 2128] ([NMeL]I[Sar][Sar][NMeCha][Sar][hPhe(3-F,4-CF3)][Hyp](X57)[Ac5c][NMeL][NMeD]-Piperidide; lactam N-11)"
observed = 7.82

[[record]]
compound = "CC[C@H](C)[C@@H]1NC(=O)[C@H](CC(C)C)N(C)C(=O)C[C@@H](C(=O)N2CCCCC2)N(C)C(=O)[C@H](CC(C)C)N(C)C(=O)C2(CCCC2)NC(=O)[C@@H]2C[C@@H](OCc3ccccc3Cl)CN2C(=O)[C@H](CCc2ccc(C(F)(F)F)c(F)c2)NC(=O)CN(C)C(=O)[C@H](CC2CCCCC2)N(C)C(=O)CN(C)C(=O)CN(C)C1=O [US20240148821, Compound 2138] ([NMeL]I[Sar][Sar][NMeCha][Sar][hPhe(3-F,4-CF3)][Hyp](X87)[Ac5c][NMeL][NMeD]-Piperidide; lactam N-11)"
observed = 8.07

[[record]]
compound = "CC[C@H](C)[C@@H]1NC(=O)[C@H](CC(C)C)N(C)C(=O)C[C@@H](C(=O)N2CCCCC2)N(C)C(=O)[C@H](CC(C)C)N(C)C(=O)C2(CCCC2)NC(=O)[C@@H]2C[C@@H](OCc3ccccc3C)CN2C(=O)[C@H](CCc2ccc(C(F)(F)F)c(F)c2)NC(=O)CN(C)C(=O)[C@H](CC2CCCCC2)N(C)C(=O)CN(C)C(=O)CN(C)C1=O [US20240148821, Compound 2139] ([NMeL]I[Sar][Sar][NMeCha][Sar][hPhe(3-F,4-CF3)][Hyp](oXylylene)[Ac5c][NMeL][NMeD]-Piperidide; lactam N-11)"
observed = 7.64

[[record]]
compound = "CC[C@H](C)[C@@H]1NC(=O)[C@H](CC(C)C)N(C)C(=O)C[C@@H](C(=O)N2CCCCC2)N(C)C(=O)[C@H](C2CCCC2)N(C)C(=O)C2(CCCC2)NC(=O)[C@@H]2CCCN2C(=O)[C@H](CCc2ccc3ccn(C)c3c2)NC(=O)CN(C)C(=O)[C@H](CC2CCCCC2)N(C)C(=O)[C@@H]2CCN2C(=O)[C@H](C)N(C)C1=O [US20240148821, Compound 2065] ([NMeL]I[NMeA][Aze][NMeCha][Sar][X55]P[Ac5c][NMeGly(cPent)][NMeD]-Piperidide; lactam N-11)"
observed = 7.80


Entry source: BindingDB's records for patent US20240148821
